Listing: composite z-score of selected compounds
system-name: Torsin-1A-interacting protein 2 (Homo sapiens)
assay-info: LULL1 binders on small-molecule microarray, primary screen, cell lysate, human LULL1 lysate, 635/667 nm fluorescence (AID 1092);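 also: probe is lysate of COS7 cells overexpressing human LULL1; score merges per-feature 667 nm fluorescence with signal-to-noise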
assay-conditions: hLULL1 lysate binding, 635 nm fluorescence, higher = more signal
Format: numeric value only, no unit, no commentary.

Worked examples follow.
| compound | composite z-score |
| --- | --- |
| CC(C)C[C@H]1NC(=O)[C@H](Cc2ccccc2)NC(=O)[C@@]23C(=O)N[C@@H](Cc4ccccc4)C2[C@H](C)[C@@]2(C)O[C@H]2C3/C=C/C/C=C\CNC1=O (stereo partly drawn) | 1.46 |
| [N-]=[N+]=NCc1ccccc1[C@H]1OC(c2ccc(OCCCO)cc2)=N[C@@]1(Cc1ccccc1)C(=O)N1CCOCC1 | 3.51 |
| COCCCNC(=O)[C@@H]1c2ccccc2C(=O)N(Cc2cc(C(F)(F)F)cc(C(F)(F)F)c2)[C@H]1c1ccc(CO)cc1 | 0.928 |
| CC1CC/C=C\[C@H]2OC34C=CCN(CCN5CCOCC5)C(=O)[C@H]3N(CCCCCCO)C(=O)[C@@H]4C2C(=O)O1 (stereo partly drawn) | 0.318 |
| CCCCC(=C=CC[C@H](O)c1ccc(OCCO)cc1)C[C@H](O)c1ccccn1 | 1.72 |

// query Query: composite z-score; subject: CC(C)C[C@@H]1NC(=O)[C@@]23C(=O)N[C@@H](Cc4ccccc4)C2[C@H](C)[C@@]2(C)O[C@H]2C3/C=C/C/C=C\CNC(=O)[C@@H](CC(C)C)NC1=O (stereo partly drawn)
// result 2.16

// query Item O=C1C2C=CC(C(O)c3ccc([N+](=O)[O-])cc3)N(Nc3ccccc3)C2C(=O)N1c1ccccc1 (stereo not drawn) has what recorded composite z-score?
// result 2.68

// query Quick one: composite z-score of C=C(COC)/C(=C/C[C@H](OC(=O)c1ccncc1)c1ccc(OCCO)cc1)c1cc(C(=O)OC)ccc1OC ?
// result 2.28

// query Tell me the measured composite z-score of COCCOC(=O)N1C(=O)[C@@]2(c3cc(C#CC4(O)CCCCCC4)ccc31)[C@H](c1ccc(OCCO)cc1)N1[C@H](c3ccccc3)[C@H](c3ccccc3)OC(=O)[C@H]1[C@@H]2C(N)=O , please.
// result 1.67

// query Param item = CN(C)CCCCNC(=O)[C@H]1C[C@H]2C(=O)N[C@@H](Cc3ccccc3)C(=O)N2[C@H]1c1cccc(OCCO)c1 ; retrieve measured composite z-score.
// result 0.33

// query # lookup: composite z-score of CO[C@H]1O[C@H](CO)[C@@H](OC(=O)Nc2ccc(C(F)(F)F)cc2)[C@H](OC(=O)Nc2ccccc2-c2ccccc2)[C@H]1OC(=O)Nc1ccccc1-c1ccccc1
// result 3.29

// query Requested field: composite z-score. Item: C=CCOC(=O)[C@H]1[C@@H]2C(=O)O[C@@H](c3ccccc3)[C@@H](c3ccccc3)N2[C@@H](c2ccc(OCCOC(=O)[C@@H]3C[C@@H]4C(=O)N[C@@H](Cc5ccccc5)C(=O)N4[C@@H]3c3ccc(O)cc3)cc2)[C@]12C(=O)Nc1ccccc12
// result 2.13

// query What measured composite z-score goes with CN(C)C(=O)[C@]1(Cc2ccccc2CN=[N+]=[N-])N=C(c2ccc(OCCCO)cc2)O[C@@H]1c1ccccc1N=[N+]=[N-] ?
// result 3.43

---

The reader will find reported composite z-score values listed item by item below.
system-name: Carbonic anhydrase 2 (Homo sapiens)
assay-info: CAII small-molecule binders, profiling panel, biochemical, small-molecule microarray, Alexa647-labelled CAII (AID 1122)
assay-conditions: CAII-A647 binding fluorescence, higher = more signal

Below: 3 molecules and their reported composite z-score.
| molecule | composite z-score |
| --- | --- |
| CO[C@H]1O[C@H](CO)[C@@H](OC(=O)Nc2ccc3c(c2)OCO3)[C@@H]2OC(=O)[C@@H](Cc3ccccc3)C/C=C/C[C@H](Cc3ccccc3)C(=O)O[C@@H]12 | 0.552 |
| COCCOC(=O)N1C(=O)[C@@]2(c3cc(C#CCCO)ccc31)[C@H](C(=O)N1CCc3cc(OC)c(OC)cc3C1)[C@H]1C(=O)O[C@H](c3ccccc3)[C@H](c3ccccc3)N1[C@@H]2c1ccccc1OCCO | 0.422 |
| COC(=O)[C@@]1(Cc2ccc(F)cc2)[C@H]2c3cc(C(=O)N4CCCC4)n(CCO)c3C[C@H]2CN1C(=O)c1ccccc1 | 0.753 |

// query Given the molecule C=C(COC)C(=O)CC[C@@H](OC(=O)c1cccnc1)c1cccc(OCCO)c1 , what is its reported composite z-score?
// result 0.75

// query Given CN(C)CCCNC(=O)[C@@]1(Cc2ccccc2I)c2ccccc2C(=O)N(Cc2ccccc2)[C@H]1c1ccc(CO)cc1 , state its recorded composite z-score.
// result 0.362

// query Suppose we examine the molecule CC(C)C[C@@H]1NC(=O)[C@@]23C(=O)N[C@@H](Cc4ccccc4)C2[C@H](C)[C@@]2(C)O[C@H]2C3/C=C/C/C=C\CNC(=O)[C@@H](CC(C)C)NC1=O (some centres not stated) ; what composite z-score value has been reported?
// result 0.599

// query I am curious: what composite z-score value has been reported for CC(C)(C)OC(=O)CC[C@]1(C(N)=O)N=C(c2ccc(OCCCO)cc2)O[C@H]1c1ccccc1CN=[N+]=[N-] ?
// result 0.981

// query I have this molecule here, C=CCN1C(=O)[C@]2(O[C@H](CCO)[C@@H]([Si](C)(C)c3ccc(OC)cc3)[C@@H]2C)c2ccccc21 , and I need its recorded composite z-score.
// result 0.277

// query Please report the recorded composite z-score for NCCCC[C@@H]1NC(=O)[C@H]2C[C@@H](C(=O)NCc3ccc(F)cc3)[C@@H](c3ccc(O)cc3)N2C1=O .
// result 0.738

// query Which composite z-score is reported for this molecule? COc1ccccc1CN1C(=O)c2ccccc2[C@](Cc2ccccc2I)(C(=O)NCCCN(C)C)[C@@H]1c1ccc(CO)cc1
// result 0.475

// query What does the data say about its composite z-score? Entry: CN(C)CCCC[C@@H]1NC(=O)[C@@H]2C[C@H](C(=O)NCCCCCCNC(=O)CS)[C@H](c3cccc(OCCO)c3)N2C1=O
// result 0.48

---

assay-info: PSAC antagonists in infected red cells, primary screen, cell-based, P. falciparum Indochina, OD700, 1 h (AID 1154)
assay-conditions: P. falciparum Indochina infected RBC osmotic lysis, higher = more signal, called active from +8 up or from −8 down
endpoint: z-score
Give a plain numeric answer without units written out.

| compound | z-score |
| --- | --- |
| C=CCOC(=O)[C@H]1[C@@H]2C(=O)O[C@@H](c3ccccc3)[C@@H](c3ccccc3)N2[C@@H](c2ccc(OCCOC(=O)[C@@H]3C[C@@H]4C(=O)N[C@@H](CC(C)C)C(=O)N4[C@@H]3c3ccc(O)cc3)cc2)[C@]12C(=O)Nc1ccc(I)cc12 | 2.77 |
| COCCOC(=O)N1C(=O)[C@@]2(c3cc(C#CC4=CCCCC4)ccc31)[C@H](c1ccc(OCCO)cc1)N1[C@H](c3ccccc3)[C@H](c3ccccc3)OC(=O)[C@H]1[C@@H]2C(=O)N1CCCCCCC1 | 2.24 |

// query Query (compound): C=CCC(OC(C)=O)[C@@H]1[C@@H](N(Cc2ccc(-c3cccc(C(F)(F)F)c3)o2)C(=O)c2cccc3ccccc23)c2cc(OCCCO)ccc2N1C(=O)c1ccc2ccccc2n1 (stereo partly drawn) ; field requested: z-score
// result 0.706

// query Look up z-score for this compound: C[C@H]1NC(=O)C([C@@H](C)OCc2ccccc2)NC(=O)[C@@]23C(=O)N[C@@H](Cc4ccccc4)C2[C@H](C)[C@@]2(C)O[C@H]2C3/C=C/C/C=C\CNC1=O (stereo partly drawn)
// result 1.88

// query Sample CCCCC(=C=CC[C@@H](O)c1cccc(OCCO)c1)CCO — what was its z-score?
// result 6.54

// query # get_value(readout='z-score', item= C=CC[C@]1(C(=O)NCc2ccccc2)COC(c2ccc(OCCCO)cc2)=N1 )
// result 20.7

// query // lookup z-score for C=C(/C(=C/C[C@@H](OC(C)=O)c1ccccc1OCCO)c1cc(C(=O)OC)ccc1OC)C(C)C
// result 14.6

// query Query: z-score; subject: COc1ccc(CCNC(=O)[C@@]2(Sc3ccc(C)cc3)CC(=O)N(C(C)C)[C@@H]2c2ccc(CO)cc2)cc1
// result 2.36

---

assay-info: basal S. cerevisiae growth modulation, no modifier, primary screen, OD600, strain BY4716, 24 h, basal condition (AID 1173)
assay-conditions: OD600, 24 h, higher = more signal, called active from +8 up or from −8 down
z-score for assorted compounds
Respond with the number and no other words.

# annotated cases, reported z-score shown
| chem-smiles | z-score |
| --- | --- |
| C=CCOC(=O)[C@H]1[C@@H]2C(=O)O[C@@H](c3ccccc3)[C@@H](c3ccccc3)N2[C@@H](c2ccc(OCCOC(=O)[C@@H]3C[C@@H]4C(=O)N[C@@H](CC(C)C)C(=O)N4[C@@H]3c3ccc(O)cc3)cc2)[C@]12C(=O)Nc1ccc(I)cc12 | 0.637 |
| C[N+](C)(C)CCCC[C@@H]1NC(=O)[C@H]2C[C@@H](C(=O)NCCCCCNC(=O)CS)[C@@H](c3ccc(O)cc3)N2C1=O | -0.905 |

// query Need z-score, item CCCCCCc1nc(-c2ccc(OC)nc2)cc2c1[Si](C(C)C)(C(C)C)OC2
// result 0.721

// query Which measured z-score value corresponds to COCCOC(=O)N1C(=O)[C@@]2(c3cc(C#CCCO)ccc31)[C@H](C(=O)N1CCc3cc(OC)c(OC)cc3C1)[C@H]1C(=O)O[C@H](c3ccccc3)[C@H](c3ccccc3)N1[C@@H]2c1ccccc1OCCO ?
// result 1.68

// query Tell me the measured z-score of C=CCN1C(=O)[C@]2(O[C@H](CCn3cc([C@H](O)c4ccccc4)nn3)[C@@H]([Si](C)(C)c3ccc(OC)cc3)[C@@H]2C)c2cc(N3C(=O)c4cccc5cccc3c45)ccc21 , please.
// result 0.0523

// query Which z-score is reported for this compound? CCCCNC(=O)c1ccc(C#C[Si](C)(C)C)c(OC(C)=O)c1
// result -1.09

// query I'd like to know its z-score. The compound in question is CN(C)CCCC[C@@H]1NC(=O)[C@H]2C[C@@H](C(=O)O)[C@@H](c3cccc(OCCO)c3)N2C1=O
// result -1.12
